These data points were gathered from paper PMC9352680.

# targetOrTestSystem: T1, PUF4 RNA-binding domain (Saccharomyces cerevisiae, UniProt P25339 537-888)
# T1 sequence: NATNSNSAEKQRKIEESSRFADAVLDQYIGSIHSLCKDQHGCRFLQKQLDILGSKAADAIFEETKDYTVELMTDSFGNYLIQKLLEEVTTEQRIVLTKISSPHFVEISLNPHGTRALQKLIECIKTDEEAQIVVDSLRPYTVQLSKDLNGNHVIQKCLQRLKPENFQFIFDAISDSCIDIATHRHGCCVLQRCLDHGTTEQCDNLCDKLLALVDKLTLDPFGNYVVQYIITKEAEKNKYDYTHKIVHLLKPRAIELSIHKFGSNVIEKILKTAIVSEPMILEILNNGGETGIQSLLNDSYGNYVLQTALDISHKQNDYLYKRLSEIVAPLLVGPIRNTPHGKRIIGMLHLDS
# assay: Mg; RNA-MaP; 20 mM Na-HEPES pH 7.4, 30 mM KOAc, 0.75 mM MgCl2, 0.1% Tween-20, 5% glycerol, 0.1 mg/mL BSA, 2 mM DTT; 25 C; 0.0125-409.6 nM protein
# conditionInfo: tags: N-His6-TEV cleaved; C-SNAP kept, Cy3B-labelled; label: tethered on chip by stalled RNA polymerase
Mark YES for Kd under 700 nM, NO if at or over.

Take a look at these entries with their results.
binder	classAssignment
UCUCUUGCUAUAUAUUAUUUCUCUU (ssRNA) [Id_ii_S1_P4E.3_K4.2_C4.2_[C-2G]_[T-1C]_H4.2_A4.1_F4.1_T4.2_[G10T]]	YES
UCUCUUUAUAUAUUAUUACGUCUCUU (ssRNA) [Id_ii_S1_P5E.3_K5.2_C5.2_[C-2T]_[T-1A]_H5.2_A5.1_F5.1_T5.2_[T11C]_[A12G]]	YES
Id_ii_S4_P4E.4_K4.3_C4.2_[T-1C]_H4.3_A4.1_F4.1_T4.2_[G10T]_[T11A] (ssRNA) RNA: UUUGACAACUGAUCGUUCUUUCUCCACACUAUUAUAUUCUUUCUCGAUCAGUUGUCUUU	NO
Id_ii_S2_P3E.3_K3.2_C3.2_[C-2A]_[T-1G]_H3.2_A3.1_F3.1_T3.2_[T9A]_[A10C] (ssRNA) RNA: UUUGAUUAAUAUGAUAUCGUUCUUUCUAGUAUAUAUAACUUCUUUCUCGAUAUCAUAUUAAUCUUU	NO
UCUCUUUGUCUCUAUAUUAUCUCUU (ssRNA) [Ie_S1_P4E.1_K4.1_C4.1_H4.1_[+3CTCT]_A4.1_F4.1_T4.1]	YES

We now examine a further binder.
In plain terms, does Id_ii_S2_P3E.3_K3.2_C3.2_[C-2G]_H3.2_A3.1_F3.1_T3.2_[A10C] (ssRNA) RNA: UUUGAUUAAUAUGAUAUCGUUCUUUCUGUUAUAUAUAUCUUCUUUCUCGAUAUCAUAUUAAUCUUU come in under 700 nM for Kd?
YES
